- System: rodent lifetime carcinogenesis bioassay, tumor incidence TD50
- ASSAY METHOD TEXT: carcinogenic potency in animals, long-term in vivo studies, CPDB compilation (AID 1745844)
- CONDITION LABEL: dog; strain Beagle; females; in feed; site: adrenal gland; lesion: medullary adenoma; dosed 365 weeks; study length 365 weeks
ENDPOINT NAME: TD50

Field request: TD50 | item: Cc1cc(C)c(S(=O)(=O)O)cc1N=Nc1cc(S(=O)(=O)O)c2ccccc2c1O 316 mg/kg/day

----------
- Tested on: rodent lifetime carcinogenesis bioassay, tumor incidence TD50
- ASSAY METHOD TEXT: carcinogenic potency in animals, long-term in vivo studies, CPDB compilation (AID 1745844)
- CONDITION LABEL: rat; strain Buffalo; females; in feed; site: ear duct; lesion: squamous-cell carcinoma; dosed 53 weeks; study length 54 weeks
ENDPOINT NAME: TD50

Field request: TD50 | item: O=C(Nc1ccc2c(c1)Cc1ccccc1-2)C(F)(F)F 4.94 mg/kg/day

----------
- Tested on: rodent lifetime carcinogenesis bioassay, tumor incidence TD50
- ASSAY METHOD TEXT: carcinogenic potency in animals, long-term in vivo studies, CPDB compilation (AID 1745844)
- CONDITION LABEL: rat; strain Fischer 344; females; by gavage; site: multiple organs; lesion: mononuclear-cell leukemia; dosed 104 weeks; study length 104 weeks
ENDPOINT NAME: TD50 (mg/kg/day)
Please state the figure in mg/kg/day; there is no need to write the unit.

Field request: TD50 | item: O=P(OCCCl)(OCCCl)OCCCl 90.2

----------
- Test system: rodent lifetime carcinogenesis bioassay, tumor incidence TD50
- ASSAY METHOD TEXT: carcinogenic potency in animals, long-term in vivo studies, CPDB compilation (AID 1745844)
- CONDITION LABEL: rat; strain Fischer 344; females; in drinking water; site: palate + tongue; lesion: squamous-cell carcinoma; dosed 96 weeks; study length 97 weeks
ENDPOINT NAME: TD50 (mg/kg/day)
Please state the figure in mg/kg/day; there is no need to write the unit.

Field request: TD50 | item: COc1cc(-c2ccc(N=Nc3c(S(=O)(=O)O)cc4cc(S(=O)(=O)O)cc(N)c4c3O)c(OC)c2)ccc1N=Nc1c(S(=O)(=O)O)cc2cc(S(=O)(=O)O)cc(N)c2c1O 208

----------
- Tested on: rodent lifetime carcinogenesis bioassay, tumor incidence TD50
- ASSAY METHOD TEXT: carcinogenic potency in animals, long-term in vivo studies, CPDB compilation (AID 1745844)
- CONDITION LABEL: mouse; strain B6C3F1; males; in feed; site: any site (literature study); lesion: several types; types named in the paper; dosed 94 weeks; study length 104 weeks
ENDPOINT NAME: TD50
The reply should read as a number followed by its unit.

Fill in the recorded TD50 for this compound, with rodent lifetime carcinogenesis bioassay, tumor incidence TD50 as test system: CCNC(=O)Nc1ncc([N+](=O)[O-])s1 4750 mg/kg/day

----------
- System: rodent lifetime carcinogenesis bioassay, tumor incidence TD50
- ASSAY METHOD TEXT: carcinogenic potency in animals, long-term in vivo studies, CPDB compilation (AID 1745844)
- CONDITION LABEL: mouse; strain B6C3F1; males; inhaled; site: preputial gland; lesion: carcinoma + carcinoma, bilateral; dosed 13 weeks; study length 104 weeks
ENDPOINT NAME: TD50

Field request: TD50 | item: C=CC=C 167 mg/kg/day
